Biological target: canine TRPM8 (Canis lupus familiaris)
Construct: expressed in transfected cells
Sequence (Q1A7N1 1-1104): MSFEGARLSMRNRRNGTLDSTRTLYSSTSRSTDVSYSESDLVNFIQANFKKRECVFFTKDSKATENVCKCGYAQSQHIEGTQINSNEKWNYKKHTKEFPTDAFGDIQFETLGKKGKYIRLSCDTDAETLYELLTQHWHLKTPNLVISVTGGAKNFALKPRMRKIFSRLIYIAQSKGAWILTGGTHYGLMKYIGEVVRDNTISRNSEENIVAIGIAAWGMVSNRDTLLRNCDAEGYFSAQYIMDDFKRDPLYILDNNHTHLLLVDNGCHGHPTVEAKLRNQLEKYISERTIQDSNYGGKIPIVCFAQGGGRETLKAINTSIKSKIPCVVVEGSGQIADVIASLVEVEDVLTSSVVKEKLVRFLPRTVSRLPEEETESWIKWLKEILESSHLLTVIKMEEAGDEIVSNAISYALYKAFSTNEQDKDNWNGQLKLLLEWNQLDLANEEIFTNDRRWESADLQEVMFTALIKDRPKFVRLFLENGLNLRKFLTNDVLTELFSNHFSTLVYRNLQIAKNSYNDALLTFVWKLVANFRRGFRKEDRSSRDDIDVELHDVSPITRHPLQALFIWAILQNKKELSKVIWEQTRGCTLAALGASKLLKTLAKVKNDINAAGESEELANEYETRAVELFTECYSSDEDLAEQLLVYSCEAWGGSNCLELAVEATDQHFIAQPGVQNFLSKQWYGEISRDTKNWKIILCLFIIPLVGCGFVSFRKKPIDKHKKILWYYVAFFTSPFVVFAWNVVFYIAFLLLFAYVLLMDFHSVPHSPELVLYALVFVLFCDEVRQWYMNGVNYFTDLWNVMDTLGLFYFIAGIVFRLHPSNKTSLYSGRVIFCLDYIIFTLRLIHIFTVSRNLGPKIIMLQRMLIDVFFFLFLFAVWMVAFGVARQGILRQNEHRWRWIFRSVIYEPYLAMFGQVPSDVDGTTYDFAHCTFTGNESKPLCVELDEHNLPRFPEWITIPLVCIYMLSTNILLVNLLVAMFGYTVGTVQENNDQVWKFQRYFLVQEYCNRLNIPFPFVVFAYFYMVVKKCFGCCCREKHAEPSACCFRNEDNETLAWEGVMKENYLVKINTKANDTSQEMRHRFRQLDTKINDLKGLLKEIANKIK
Assay: In vitro canine TRPM8 functional assay (Ca2+-sensitive dye, FLIPR/FDSS, icilin activation)
Format: cell-based
Conditions: HEK293 cells expressing canine TRPM8, icilin activation; eight-point dose-response; read-out: IC50
Below, each entry is listed alongside its reported IC50.
Response body: numeric value in nM, unit text excluded.

Take a look at these entries with their results.
1. CCOP(=O)(OCC)C(Cc1cccc(Cl)c1Cl)c1sc2ccccc2c1C (centres unmarked) = 125
2. CC(C)OP(=O)(OC(C)C)C(Cc1cc(C(F)(F)F)ccc1F)c1sc2ccccc2c1Cl (racemic) = 105
3. CCOP(=O)(OCC)C(Cc1ccc(F)c(F)c1)c1sc2ccccc2c1-c1cccc(C(N)=O)c1 (racemic) = 483
4. CC(C)OP(=O)(OC(C)C)C(Cc1ccc(Cl)c(C(F)(F)F)c1)c1sc2ccccc2c1Cl (racemic) = 97
5. CC(C)OP(=O)(OC(C)C)C(Cc1cccc(F)c1F)c1cc2ccccc2s1 (centres unmarked) = 350

Quick check: IC50 of CC(C)OP(=O)(OC(C)C)C(Cc1ccc(OC(F)(F)F)cc1)c1sc2ccccc2c1Cl (centres unmarked) ? 62

Record request: IC50 value, item CCOP(=O)(OCC)C(Cc1ccc(F)cc1Cl)c1sc2ccccc2c1C (centres unmarked) 110

If you can, please state the reported IC50 value of CCOP(=O)(OCC)C(Cc1ccc(F)c(F)c1)c1oc2ccccc2c1Br (centres unmarked) . 51

Param item = CC(C)OP(=O)(OC(C)C)C(Cc1cc(F)cc(Cl)c1)c1sc2ccccc2c1Cl (centres unmarked) ; retrieve measured IC50. 51

Bench note: what IC50 did CC(C)OP(=O)(OC(C)C)C(Cc1ccc(C(F)(F)F)cc1)c1sc2ccccc2c1Br (centres unmarked) show? 43

For the compound shown here, CCOP(=O)(OCC)C(Cc1cc(C(F)(F)F)ccc1F)c1sc2ccccc2c1C (centres unmarked) , give the reported IC50. 330

Sourced from patent US20080287398A1
